target under test: T1, 4H2692-bH
T1 chain: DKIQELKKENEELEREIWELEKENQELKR
measurement notes: two-hybrid library CCNG1;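 also: natural log of median RNA to DNA barcode read ratio; higher means stronger binding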
attribute measured: interaction score

Worked set:
DKIQELEKKNEELKREIWELEKKNQELER [4H2503-bH]: 0.839
DKIQELKKENEELEREIWELEKENQELKR [4H2692-bH]: 0.733
DKIQELKKEIEELERENWELKKENQELKR [4H2588-bH]: 0.605
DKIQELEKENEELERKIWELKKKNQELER [4H2223-bH]: 0.736

a = DKIQELEKKNEELERKIWELKKEIQELER [4H2473-bH]
b = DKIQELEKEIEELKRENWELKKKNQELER [4H2143-bH]
Could you determine which record has the numerically smaller interaction score? Candidates: a and b Identify your selection by its label.
b

These measurements were taken from paper PMC10397247.
